- target: Mu-type opioid receptor (Homo sapiens)
- Sequence (P35372 whole entry): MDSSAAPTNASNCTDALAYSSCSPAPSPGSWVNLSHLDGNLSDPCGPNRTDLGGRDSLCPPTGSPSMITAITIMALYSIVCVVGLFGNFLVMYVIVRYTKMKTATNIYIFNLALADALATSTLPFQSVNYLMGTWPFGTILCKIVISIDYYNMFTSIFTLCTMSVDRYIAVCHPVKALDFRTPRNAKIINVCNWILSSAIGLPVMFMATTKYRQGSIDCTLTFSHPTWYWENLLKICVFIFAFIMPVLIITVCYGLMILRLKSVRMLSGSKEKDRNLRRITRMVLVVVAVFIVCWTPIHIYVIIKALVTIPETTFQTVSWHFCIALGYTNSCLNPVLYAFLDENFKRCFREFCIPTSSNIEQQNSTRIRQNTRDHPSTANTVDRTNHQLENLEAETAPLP
experimental endpoint: Ki (nM)

smiles_code=C[C@H]1CN(CC[C@H](O)C2CCCCC2)CC[C@@]1(C)c1ccccc1 test_result=7.7

----------
- target: Kappa-type opioid receptor (Homo sapiens, UniProt P41145)
- Sequence (P41145 whole entry): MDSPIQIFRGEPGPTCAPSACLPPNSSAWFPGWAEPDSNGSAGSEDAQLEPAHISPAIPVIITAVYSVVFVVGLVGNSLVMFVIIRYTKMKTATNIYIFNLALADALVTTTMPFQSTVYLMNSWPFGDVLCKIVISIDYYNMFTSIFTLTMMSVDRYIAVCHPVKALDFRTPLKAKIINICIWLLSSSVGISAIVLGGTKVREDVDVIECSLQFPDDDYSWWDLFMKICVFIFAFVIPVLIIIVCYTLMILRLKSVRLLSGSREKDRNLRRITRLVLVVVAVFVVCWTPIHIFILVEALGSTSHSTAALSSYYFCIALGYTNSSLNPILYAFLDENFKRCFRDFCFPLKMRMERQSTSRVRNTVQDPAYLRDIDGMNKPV
experimental endpoint: Ki

smiles_code=C[C@H]1CN(CC[C@H](O)C2CCCCC2)CC[C@@]1(C)c1ccccc1 test_result="0.749 µM"
